Target: recombinant human mPGES-1 (Homo sapiens)
Construct: made in house; host or cells: Rosetta E. coli (microsomal/membrane fraction)
Sequence (O14684 1-152): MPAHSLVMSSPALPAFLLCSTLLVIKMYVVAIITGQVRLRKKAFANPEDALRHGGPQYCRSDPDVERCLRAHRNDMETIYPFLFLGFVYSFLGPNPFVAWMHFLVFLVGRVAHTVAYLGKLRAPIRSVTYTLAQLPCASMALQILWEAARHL
Test: mPGES-1 inhibition, HTRF detection of PGE2
Assay type: biochemical
Parameter Measured: inhibition at 10 µM (%)

O=C(NCc1ncccc1C(F)(F)F)c1cc2nc(Nc3c(Cl)cc(F)cc3Cl)[nH]c2nc1OCC(F)F ... 100
Cn1c(Nc2c(F)cccc2Cl)nc2cc(C(=O)N[C@H]3CC[C@H](C)CC3)cnc21 ... 100
O=C(Nc1ccc(Br)cc1)c1cc2nc(Nc3c(Cl)cncc3Cl)[nH]c2nc1OC1CCOC1 (stereo not drawn) ... 89
COCCOc1nc2[nH]c(Nc3c(Cl)cncc3Cl)nc2cc1C(=O)Nc1cc(C(F)(F)F)ccn1 ... 100
O=C(NCc1ccccc1C(F)(F)F)c1cc2nc(Nc3c(Cl)cncc3Cl)[nH]c2nc1OCC(F)F ... 98
CCCC(CCC)NC(=O)c1cnc2c(c1)nc(Nc1c(Cl)cccc1Cl)n2C ... 99
CC(C)n1c(Nc2c(F)cccc2Cl)nc2cc(C(=O)NC3CCC(C)(C)CC3)cnc21 ... 96
CC(=O)N(C)CCOc1nc2c(cc1C(=O)Nc1ccc(Br)cc1)nc(Nc1c(Cl)cncc1Cl)n2C ... 96
CC(C)n1c(Nc2c(Cl)cccc2Cl)nc2cc(C(=O)NC3CCC(C)(C)CC3)cnc21 ... 100
O=C(NCC(F)(F)C(F)(F)C(F)(F)C(F)(F)F)c1cc2nc(Nc3c(Cl)cncc3Cl)[nH]c2nc1OCC(F)(F)F ... 96
Cn1c(Nc2c(Cl)cncc2Cl)nc2cc(C(=O)NCC(F)(F)C(F)(F)C(F)(F)C(F)(F)F)c(OCCF)nc21 ... 99
O=C(NCc1ccccc1C(F)(F)F)c1cc2nc(Nc3c(Cl)cc(F)cc3Cl)[nH]c2nc1OCC(F)(F)F ... 98
Cn1c(Nc2c(Cl)cc(F)cc2Cl)nc2cc(C(=O)Nc3ccc(Br)cc3)c(OCC(F)(F)F)nc21 ... 97
CC1(C)CCC(NC(=O)c2cnc3[nH]c(Nc4c(F)cccc4Cl)nc3c2)CC1 ... 100
O=C(Nc1cc(C(F)(F)F)ccn1)c1cc2nc(Nc3c(Cl)cc(F)cc3Cl)[nH]c2nc1OCC(F)(F)F ... 96
O=C(N[C@H]1CC[C@H](C(F)(F)F)CC1)c1cc2nc(Nc3c(Cl)cncc3Cl)[nH]c2nc1OCC(F)F ... 99
Cn1c(Nc2c(Cl)cncc2Cl)nc2cc(C(=O)NCc3ncccc3C(F)(F)F)c(OC3CCOC3)nc21 (stereo not drawn) ... 100
O=C(N[C@H]1CC[C@H](C(F)(F)F)CC1)c1cc2nc(Nc3ccccc3C(F)(F)F)[nH]c2nc1OCC(F)F ... 97
CCOc1nc2[nH]c(Nc3c(Cl)cncc3Cl)nc2cc1C(=O)NCc1ncccc1C(F)(F)F ... 99
O=C(N[C@H]1CC[C@H](C(F)(F)F)CC1)c1cc2nc(Nc3c(Cl)ccc(Cl)c3F)[nH]c2nc1OCC(F)F ... 96
Cn1c(Nc2c(Cl)cc(F)cc2Cl)nc2cc(C(=O)NCC(F)(F)C(F)(F)C(F)(F)C(F)(F)F)c(OCC(F)F)nc21 ... 100
Cn1c(Nc2c(Cl)cncc2Cl)nc2cc(C(=O)N[C@H]3CC[C@H](C(F)(F)F)CC3)c(OCCF)nc21 ... 100
CCCCC[C@H](C)NC(=O)c1cnc2c(c1)nc(Nc1c(Cl)cccc1Cl)n2C ... 98
O=C(N[C@H]1CC[C@H](C(F)F)CC1)c1cnc2[nH]c(Nc3c(Cl)cccc3Cl)nc2c1 ... 100
O=C(Nc1cc(C(F)(F)F)ccn1)c1cc2nc(Nc3c(Cl)cc(F)cc3Cl)[nH]c2nc1OCC(F)F ... 90
Cn1c(Nc2c(Cl)cccc2Cl)nc2cc(C(=O)Nc3ccc(Br)cc3)cnc21 ... 97
O=C(Nc1cc(C(F)(F)F)ccn1)c1cc2nc(Nc3c(Cl)cncc3Cl)[nH]c2nc1OCC(F)(F)F ... 99
O=C(N[C@H]1CC[C@H](C(F)(F)F)CC1)c1cc2nc(Nc3c(Cl)cc(F)cc3Cl)[nH]c2nc1OCC(F)(F)F ... 100
O=C(NCC(F)(F)C(F)(F)C(F)(F)C(F)(F)F)c1cc2nc(Nc3c(Cl)cc(F)cc3Cl)[nH]c2nc1OCC(F)(F)F ... 100
CCCCCCCNC(=O)c1cnc2c(c1)nc(Nc1c(Cl)cccc1Cl)n2C ... 100
